Biological target: Uracil nucleotide/cysteinyl leukotriene receptor (Homo sapiens)
Sequence (Q13304 whole entry): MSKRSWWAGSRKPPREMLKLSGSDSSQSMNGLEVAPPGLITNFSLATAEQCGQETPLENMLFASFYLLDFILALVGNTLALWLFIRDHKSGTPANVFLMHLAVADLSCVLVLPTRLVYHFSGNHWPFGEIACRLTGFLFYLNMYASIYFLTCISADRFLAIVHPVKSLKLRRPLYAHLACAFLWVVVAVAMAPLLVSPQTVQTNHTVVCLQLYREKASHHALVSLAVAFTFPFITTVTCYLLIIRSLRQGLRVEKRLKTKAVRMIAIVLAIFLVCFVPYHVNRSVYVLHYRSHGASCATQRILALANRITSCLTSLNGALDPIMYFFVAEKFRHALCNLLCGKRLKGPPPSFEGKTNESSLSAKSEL
Test: Antagonist activity at human GPR17 expressed in human 1321N1 cells assessed as inhibition of UDP-glucose-induced [35S]GTPgammaS binding after 30 mins by rapid filtration assay
Measurement type: IC50 (nM)

1) Nc1nc(Cl)nc2c1ncn2[C@H]1C[C@H](OP(=O)(O)O)[C@@H](COP(=O)(O)O)O1: 582

a: CNc1ncnc2c1ncn2[C@H]1C[C@H](OP(=O)(O)O)[C@@H](COP(=O)(O)O)O1
b: CNc1ncnc2c1ncn2[C@@H]1O[C@H](COP(=O)(O)OP(=O)(O)OP(=O)(O)O)[C@@H](O)[C@H]1O
Input line: Recorded IC50 values differ for a and b ; which one is higher? Label of pick, please.
Output line: a
